# SPA signal (fold increase) of [3H]-Org24598 binding at 19°C values compiled below
TESTED_ON: Human GlyT1 (human) (UniProt P48067)
Sequence (P48067 whole entry): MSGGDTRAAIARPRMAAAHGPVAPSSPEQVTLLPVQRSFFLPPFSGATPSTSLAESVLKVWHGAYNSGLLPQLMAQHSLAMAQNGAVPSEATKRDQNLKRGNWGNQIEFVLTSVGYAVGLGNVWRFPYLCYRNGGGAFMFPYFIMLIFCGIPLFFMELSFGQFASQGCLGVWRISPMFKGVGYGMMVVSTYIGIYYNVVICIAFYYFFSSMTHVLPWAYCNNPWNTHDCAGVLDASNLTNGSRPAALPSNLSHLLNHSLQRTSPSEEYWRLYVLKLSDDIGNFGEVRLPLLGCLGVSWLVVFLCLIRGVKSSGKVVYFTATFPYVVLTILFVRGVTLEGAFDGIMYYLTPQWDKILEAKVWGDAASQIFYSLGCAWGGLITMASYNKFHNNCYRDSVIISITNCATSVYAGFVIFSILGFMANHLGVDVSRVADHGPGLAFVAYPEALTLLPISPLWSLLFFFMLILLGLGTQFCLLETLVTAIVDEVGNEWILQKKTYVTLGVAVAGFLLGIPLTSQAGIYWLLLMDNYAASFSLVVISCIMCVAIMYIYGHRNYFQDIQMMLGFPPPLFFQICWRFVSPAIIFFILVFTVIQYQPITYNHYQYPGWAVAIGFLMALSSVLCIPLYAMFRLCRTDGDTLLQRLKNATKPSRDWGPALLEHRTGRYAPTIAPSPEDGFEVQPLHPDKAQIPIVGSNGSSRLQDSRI
VALUE_TYPE: SPA signal (fold increase) of [3H]-Org24598 binding at 19°C (fold)

BINDER	OUTPUT_UNIT	VALUE_OBSERVED
Sb_GlyT1#2 (VHH) VHH: QVQLVESGGGLVQAGGSLRLSCAASGFPVYHRSMLWYRQAPGKEREWVAAIKSNGAGTWYADSVKGRFTISRDNAKNTVYLQMNSLKPEDTAVYYCTVGVGTNYWGQGTQVTVS	fold	1.1
Sb_GlyT1#7 (VHH) VHH: QVQLVESGGGLVQAGGSLRLSCAASGFPVYAYEMYWYRQAPGKEREWVAAISSSGTWAGYADSVKGRFTISRDNAKNTVYLQMNSLKPEDTAVYYCNVKDWGASWAYYDYWGQGTQVTVS	fold	1.8
Sb_GlyT1#4 (VHH) VHH: QVQLVESGGGLVQAGGSLRLSCAASGFPVYAYVMAWYRQAPGKEREWVAAIKSQGVSTYYADSVKGRFTISRDNAKNTVYLQMNSLKPEDTAVYYCYVYVGTSYTGQGTQVTVS	fold	1.5
Sb_GlyT1#6 (VHH) VHH: QVQLVESGGGLVQAGGSLRLSCAASGFPVVYYEMYWYRQAPGKEREWVAAITSSGWYTHYADSVKGRFTISRDNAKNTVYLQMNSLKPEDTAVYYCNVKDWGASWKQYDYWGQGTQVTVS	fold	1.6
Sb_GlyT1#3 (VHH) VHH: QVQLVESGGGLVQAGGSLRLSCAASGFPVWNNGMAWYRQAPGKEREWVAAIASRGRSTVYADSVKGRFTISRDNAKNTVYLQMNSLKPEDTAVYYCYVNVGSHYEGQGTQVTVS	fold	1.1
Sb_GlyT1#1 (VHH) VHH: QVQLVESGGGLVQAGGSLRLSCAASGFPVYYSHMLWYRQAPGKEREWVAAIKSLGAKTWYADSVKGRFTISRDNAKNTVYLQMNSLKPEDTAVYYCTVGVGTNYYGQGTQVTVS	fold	1.2
Sb_GlyT1#5 (VHH) VHH: QVQLVESGGGLVQAGGSLRLSCAASGFPVMNRWMAWYRQAPGKEREWVAAVASYGETTRYADSVKGRFTISRDNAKNTVYLQMNSLKPEDTAVYYCNVKDWGWWTRAYDYWGQGTQVTVS	fold	1.5

Origin of measurements: paper PMC5967865
